Molecular target: CRF1R (Homo sapiens)
Sequence (P34998 24-415): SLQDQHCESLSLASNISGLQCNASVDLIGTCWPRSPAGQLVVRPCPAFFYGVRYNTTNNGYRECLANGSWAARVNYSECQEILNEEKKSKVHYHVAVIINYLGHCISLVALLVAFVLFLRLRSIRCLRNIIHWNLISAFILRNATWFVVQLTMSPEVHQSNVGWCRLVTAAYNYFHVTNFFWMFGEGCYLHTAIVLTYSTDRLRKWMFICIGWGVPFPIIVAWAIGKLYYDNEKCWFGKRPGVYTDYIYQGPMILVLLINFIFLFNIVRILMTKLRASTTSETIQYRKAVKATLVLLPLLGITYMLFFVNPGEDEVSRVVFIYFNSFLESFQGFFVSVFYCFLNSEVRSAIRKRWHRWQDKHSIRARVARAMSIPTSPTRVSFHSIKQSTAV
Assay: CRF1R agonist activation (EC50 / Emax), called comparative CRF binding
Format: cell-based
Conditions: read-out: CRF1R Emax
Ends that are not written are not given here.
Reported values of Emax for individual entries
ENDPOINT_LABEL: Emax (%)

# SUBSTANCE, ASSAY_SYSTEM, ENDPOINT_LABEL, UNITS_LABEL, NUMBER
records = [
    ("SQEIVLSLDVPIGLLREVLEMTKADQLAQQAHSNRKLLDIA-NH2 [compound 152]", "CRF1R (Homo sapiens)", "Emax", "%", 4),
    ("NDDPPISIDLPLILLRNMIEMARIENEREQAGLNAKYLAEV-NH2 [compound 269]", "CRF1R (Homo sapiens)", "Emax", "%", 44.3),
    ("SQEPPISLDLPFGLLREVLEMTKADQLAQQAHSNRKLLDIA-NH2 [compound 103]", "CRF1R (Homo sapiens)", "Emax", "%", 5.75),
    ("SQEPPISLDLPTGLLREVLEMTKADQLAQQAHSNRKLLDIA-NH2 [compound 98]", "CRF1R (Homo sapiens)", "Emax", "%", 4),
    ("NDDPPISIDLPLQLLRNMIEMARIENEREQAGLNAKYLAEV-NH2 [compound 270]", "CRF1R (Homo sapiens)", "Emax", "%", 7.85),
]
